B1: tRNA (parent)
chain: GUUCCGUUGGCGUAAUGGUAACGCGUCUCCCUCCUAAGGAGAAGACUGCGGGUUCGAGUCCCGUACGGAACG

- Variants of: B1
- Experimental protocol: yeast fitness, log relative to wild type (ln ratio); higher = fitter; tRNA-Arg(CCU), competitive growth, 37 C, 1 M NaCl
// values below are reported yeast fitness (ln)
Property measured: yeast fitness (ln)

Variant descriptor: G1A U2G G6U A43C C46U C66U A69G A70G C71U
Reported value: -0.371
--
Variant descriptor: U2G G6A A43C C46U C66U
Reported value: -0.147
--
Variant descriptor: G1A U2C A43C C46U A69G C71U
Reported value: -0.175
--
Variant descriptor: G1A G6U A43C C66A A70G
Reported value: -0.135
--
Variant descriptor: G6A C46U C66U A69G
Reported value: -0.0205
--
Variant descriptor: U2G G6U C46U C66U A69G C71U
Reported value: -0.252
--
Variant descriptor: U2G G6U C66A A69G C71U
Reported value: -0.101
--
Variant descriptor: U2G C27U A43C A70U
Reported value: -0.0184
--
Variant descriptor: G1A G6U C27U A69G A70U
Reported value: -0.29
--
Variant descriptor: G1A U2C G6A A43C C46U C71U
Reported value: -0.0914
--
Variant descriptor: G1A U2G C27U C46U C66U A69G A70U C71U
Reported value: -0.429
